B1: library; a variant is named by its letters at N, in order (parent)
chain: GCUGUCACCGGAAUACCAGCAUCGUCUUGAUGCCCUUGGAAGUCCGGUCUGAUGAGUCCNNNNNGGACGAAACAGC

Variants of: B1
Experimental protocol: normalized RNA/DNA level without ligand (relative to sTRSVctl = 100) (log10 (% of sTRSVctl)); higher = less ribozyme self-cleavage, higher mRNA level
Assay setup: HEK293T, reporter: mCherry (pCS4076), ligand present: no
Measurement name: normalized RNA/DNA level without ligand (log10)
Give only the figure.

Give normalized RNA/DNA level without ligand (log10) for GCUGUCACCGGAAUACCAGCAUCGUCUUGAUGCCCUUGGAAGUCCGGUCUGAUGAGUCCUACUAGGACGAAACAGC [UACUA]
1.67
